Molecular target: UniProtKB Q9L5C7
Sequence (Q9L5C7 entry or part of it): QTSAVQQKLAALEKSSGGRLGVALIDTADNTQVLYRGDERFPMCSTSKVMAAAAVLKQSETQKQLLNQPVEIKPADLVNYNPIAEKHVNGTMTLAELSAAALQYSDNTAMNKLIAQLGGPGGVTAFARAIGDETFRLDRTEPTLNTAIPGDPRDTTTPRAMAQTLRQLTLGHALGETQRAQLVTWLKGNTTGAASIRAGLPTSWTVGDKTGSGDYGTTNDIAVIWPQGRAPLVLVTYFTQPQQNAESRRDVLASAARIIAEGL
Test: Ki,app against β-lactamase (Example 1, Table 1)
Settings: CTX-M-14, class A; 30 min preincubation; n.d.: too low inhibitor activity at 100 µmol/L
measured-quantity: Ki (nM)
# number only, unit nM dropped from output

Sure, the documented Ki for O=C(O)C[C@@H]1CC[C@H](NC(=O)Cc2cccs2)B(O)O1 is 392

---

# MIC per entry
Test system: P. aeruginosa
Assay: MIC, broth microdilution, CDC/FDA Antibiotic Resistance Isolate Bank (Example 7, Tables 10, 15)
Assay type: cell-based
Conditions: Pseudomonas aeruginosa, P. aeruginosa KUB No. 5815, AR Bank # 510; read-out: MIC
State the value with its unit after it.

structure-smiles-string	reading
C[C@H]1COc2c(N3CCN(C)CC3)c(F)cc3c(=O)c(C(=O)O)cn1c23	8 ng/mL

Tested on P. aeruginosa, the item NCC[C@H](O)C(=O)N[C@@H]1C[C@H](N)[C@@H](O[C@H]2O[C@H](CN)[C@@H](O)[C@H](O)[C@H]2O)[C@H](O)[C@H]1O[C@H]1O[C@H](CO)[C@@H](O)[C@H](N)[C@H]1O showed MIC equal to 8 ng/mL

// assay P. aeruginosa, entry CN(C)c1cc(NC(=O)CNC(C)(C)C)c(O)c2c1C[C@H]1C[C@H]3[C@H](N(C)C)C(O)=C(C(N)=O)C(=O)[C@@]3(O)C(O)=C1C2=O , MIC value = 2 ng/mL
